Experiment: Caco-2 membrane permeability / bi-directional transport (Papp)
Assay type: in vitro ADME, human
Conditions: human; Caco-2 cells, B to A, 10 μM
test-readout: Papp B→A at 60 min, 10 μM

Check the records and state Papp B→A at 60 min, 10 μM for COc1ccc2[nH]c([S+]([O-])Cc3ncc(C)c(OC)c3C)nc2c1 (stereo not shown)
16.3 ×10⁻⁶ cm/s

---

Test system: MDR1
Assay: MDR1-MDCK bi-directional transport (Papp)
Type: in vitro ADME
Conditions: dog; MDR1-MDCK cells; read-out: Ratio Papp BA/Papp AB
test-readout: efflux ratio at 60 min, 10 µM
Lab note: write the figure by itself, no unit.

Check the records and state efflux ratio at 60 min, 10 µM for COc1ccc2[nH]c([S+]([O-])Cc3ncc(C)c(OC)c3C)nc2c1 (stereo not shown) [Omeprazole]
1.52
